study_target: NTCP (Homo sapiens)
Sequence (Q14973 whole entry): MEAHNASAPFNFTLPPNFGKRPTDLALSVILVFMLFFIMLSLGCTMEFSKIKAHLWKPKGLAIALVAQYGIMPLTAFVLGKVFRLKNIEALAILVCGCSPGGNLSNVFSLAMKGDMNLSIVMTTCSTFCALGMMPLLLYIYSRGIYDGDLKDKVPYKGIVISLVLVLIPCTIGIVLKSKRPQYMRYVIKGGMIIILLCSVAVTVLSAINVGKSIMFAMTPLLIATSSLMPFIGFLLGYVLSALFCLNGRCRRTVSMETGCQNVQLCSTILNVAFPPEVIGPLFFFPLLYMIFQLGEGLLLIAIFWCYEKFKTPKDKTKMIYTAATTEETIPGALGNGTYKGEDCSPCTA
test_details: Taurocholate uptake inhibition study in NTCP-HEK monolayers
Format: cell-based
particulars: Ki (μM) NTCP, inhibition of [3H]-taurocholate uptake (2.5 μM cold taurocholate), NTCP-HEK monolayers, 5 min, 37 °C
measured_property: Ki (µM)

// query Ki value for entry C[C@H](CCC(=O)O)[C@H]1CC[C@H]2[C@@H]3[C@H](O)C[C@@H]4C[C@H](O)CC[C@]4(C)[C@H]3CC[C@]12C [CDCA, chenodeoxycholic acid, reference compound]
0.939

(I) C[C@H](CCC(=O)O)[C@H]1CC[C@H]2[C@@H]3C(=O)C[C@@H]4CC(=O)CC[C@]4(C)[C@H]3CC(=O)[C@]12C [Compound 13, dehydrocholic acid]
(II) C[C@H](CCC(=O)O)[C@H]1CC[C@H]2[C@@H]3[C@@H](O)C[C@@H]4C[C@H](O)CC[C@]4(C)[C@H]3CC[C@]12C [UDCA, ursodeoxycholic acid, reference compound]
Lab note: record which item had the higher Ki, I or II . Respond using the label that marks the chosen record.
I
(I: 355 µM, II: 4.9 µM)
